Assay: self-splicing fitness, log relative to wild type (ln ratio); higher = more splicing; Tetrahymena group I intron in knt gene, E. coli kanamycin selection, DiMSum; sequences stand for … in CUCUCU…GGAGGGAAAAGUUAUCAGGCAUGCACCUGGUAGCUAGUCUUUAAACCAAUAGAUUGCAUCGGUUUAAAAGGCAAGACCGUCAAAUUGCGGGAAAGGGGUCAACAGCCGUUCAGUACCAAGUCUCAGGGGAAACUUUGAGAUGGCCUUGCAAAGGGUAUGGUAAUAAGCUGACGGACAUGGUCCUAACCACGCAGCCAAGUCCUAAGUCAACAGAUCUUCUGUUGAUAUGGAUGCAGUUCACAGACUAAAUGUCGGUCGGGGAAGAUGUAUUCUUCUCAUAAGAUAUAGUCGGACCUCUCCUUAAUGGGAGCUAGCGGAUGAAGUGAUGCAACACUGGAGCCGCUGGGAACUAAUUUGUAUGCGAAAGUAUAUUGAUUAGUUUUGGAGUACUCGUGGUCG;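 also: selection with 25 µg/mL kanamycin versus none on LB agar overnight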
Details: 37 °C
Label scheme for self-splicing fitness (ln): lower than -0.5 is N, -0.5 and above is Y.

Example cases with answers are listed next.
AUAAAGCAAUAUUACGCGAA ... Y
AAUCAGCAAUAUUACGCCGU ... N
AGUAAGCAAUAUUACGCAUG ... N

Request: Does the reported self-splicing fitness (ln) for CUAAAGCAAUAUUACGAUUU fall at or above the -0.5 mark?
Response: N

Request: Does the reported self-splicing fitness (ln) for GAACAGCAAUAUUACGACUA fall at or above the -0.5 mark?
Response: Y

Request: Does the reported self-splicing fitness (ln) for CUGCAGCAAUAUUACGCGAG fall at or above the -0.5 mark?
Response: N

Request: Does the reported self-splicing fitness (ln) for UACAAGCAAUAUUACGUAGC fall at or above the -0.5 mark?
Response: N

Request: Does the reported self-splicing fitness (ln) for ACCUAGCAAUAUUACGUCGA fall at or above the -0.5 mark?
Response: N

###

Test: self-splicing fitness, log relative to wild type (ln ratio); higher = more splicing; Tetrahymena group I intron in knt gene, E. coli kanamycin selection, DiMSum; sequences stand for … in CUCUCU…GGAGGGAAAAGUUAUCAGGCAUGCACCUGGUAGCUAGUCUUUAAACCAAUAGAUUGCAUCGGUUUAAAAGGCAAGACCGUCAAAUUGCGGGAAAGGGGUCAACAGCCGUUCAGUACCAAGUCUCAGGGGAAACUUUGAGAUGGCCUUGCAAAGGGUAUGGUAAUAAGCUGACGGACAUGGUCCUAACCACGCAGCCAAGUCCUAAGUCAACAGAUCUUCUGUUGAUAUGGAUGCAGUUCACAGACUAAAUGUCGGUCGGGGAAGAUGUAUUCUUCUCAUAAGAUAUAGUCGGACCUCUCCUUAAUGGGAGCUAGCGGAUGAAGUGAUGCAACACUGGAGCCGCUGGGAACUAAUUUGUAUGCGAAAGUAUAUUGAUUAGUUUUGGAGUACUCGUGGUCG
Settings: 37 °C
measurementLabel: self-splicing fitness (ln)

Solved entries (count: 6):
UUGAAGCAAUAUUACGCGAG ... 0.721
UUGCAGCAAUAUUACGGAGG ... -2.73
AAGCAGCAAUAUUACGCUAG ... -2.84
CGCAAGCAAUAUUACGAUAU ... -1.91
GGCUAGCAAUAUUACGGUUG ... -0.197
CUCGAGCAAUAUUACGUCAU ... -3.38

Please state, for each entry, its recorded self-splicing fitness (ln).
1. CACUAGCAAUAUUACGCGAU
2. GGUUAGCAAUAUUACGGCCG
3. GCGUAGCAAUAUUACGCCGG
4. GAACAGCAAUAUUACGCUUC
5. UCCUAGCAAUAUUACGUUGU

Response:
-2.12
-0.019
-3.92
-3.19
-1.99

Please state, for each entry, its recorded self-splicing fitness (ln).
1. AAUAAGCAAUAUUACGUCUA
2. UCAUAGCAAUAUUACGGACG
3. ACGGAGCAAUAUUACGCCCG
4. CACUAGCAAUAUUACGCACC
5. GCGAAGCAAUAUUACGAAGC

Response:
[0.434, -1.11, 0.0539, -0.458, -2.49]

###

Experiment: self-splicing fitness, log relative to wild type (ln ratio); higher = more splicing; Tetrahymena group I intron in knt gene, E. coli kanamycin selection, DiMSum; sequences stand for … in CUCUCU…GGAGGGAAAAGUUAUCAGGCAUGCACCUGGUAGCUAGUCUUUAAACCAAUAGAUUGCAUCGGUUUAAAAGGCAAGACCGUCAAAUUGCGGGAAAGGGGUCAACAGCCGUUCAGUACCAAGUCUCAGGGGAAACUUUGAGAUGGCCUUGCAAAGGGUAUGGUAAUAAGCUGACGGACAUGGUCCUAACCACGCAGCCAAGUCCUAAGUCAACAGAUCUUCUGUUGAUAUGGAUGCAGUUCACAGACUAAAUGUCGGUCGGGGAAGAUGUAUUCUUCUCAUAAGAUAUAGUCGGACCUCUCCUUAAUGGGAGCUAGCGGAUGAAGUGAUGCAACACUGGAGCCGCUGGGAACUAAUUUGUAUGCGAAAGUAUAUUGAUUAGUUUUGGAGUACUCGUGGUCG
Settings: 30 °C
measurementLabel: self-splicing fitness (ln)
Give bare numbers.

UUGCAGCAAUAUUACGACUU ... -0.403
CACAAGCAAUAUUACGUCUA ... -1.42

Please state, for each entry, its recorded self-splicing fitness (ln).
1. CGAAAGCAAUAUUACGGGUC
2. AUUCAGCAAUAUUACGCUCU
3. CUCGAGCAAUAUUACGAGAU
4. AAAGAGCAAUAUUACGCUGA

Response:
-4
-0.186
-2.87
-2.1

###

Assay: self-splicing fitness, log relative to wild type (ln ratio); higher = more splicing; Tetrahymena group I intron in knt gene, E. coli kanamycin selection, DiMSum; sequences stand for … in CUCUCU…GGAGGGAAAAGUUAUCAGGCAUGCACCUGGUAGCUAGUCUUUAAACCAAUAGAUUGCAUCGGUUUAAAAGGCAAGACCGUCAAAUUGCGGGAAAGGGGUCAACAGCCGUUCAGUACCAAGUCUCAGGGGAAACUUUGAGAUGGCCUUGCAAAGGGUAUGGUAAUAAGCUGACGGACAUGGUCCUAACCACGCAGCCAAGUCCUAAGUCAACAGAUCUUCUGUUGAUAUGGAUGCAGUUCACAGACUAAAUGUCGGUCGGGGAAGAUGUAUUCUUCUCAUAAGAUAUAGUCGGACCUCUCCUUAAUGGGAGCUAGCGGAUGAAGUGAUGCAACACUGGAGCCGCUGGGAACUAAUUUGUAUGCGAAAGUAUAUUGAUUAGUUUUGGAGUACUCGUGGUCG
Conditions: 37 °C
measurementLabel: self-splicing fitness (ln)

Solved entries (count: 3):
AACGAGCAAUAUUACGCACA ... -2.09
UGGCAGCAAUAUUACGGACG ... 0.916
AGCCAGCAAUAUUACGCCGG ... -3.39

Please state, for each entry, its recorded self-splicing fitness (ln).
1. UAUUAGCAAUAUUACGCACG
2. UACUAGCAAUAUUACGGACG
3. AGAUAGCAAUAUUACGGAGG
4. GCGCAGCAAUAUUACGCCGA
5. CCCGAGCAAUAUUACGGCAU
6. CGGCAGCAAUAUUACGUUCG

Response:
[0.0642, 0.0809, -3.22, -1.27, -1.85, -1.23]

###

Test: self-splicing fitness, log relative to wild type (ln ratio); higher = more splicing; Tetrahymena group I intron in knt gene, E. coli kanamycin selection, DiMSum; sequences stand for … in CUCUCU…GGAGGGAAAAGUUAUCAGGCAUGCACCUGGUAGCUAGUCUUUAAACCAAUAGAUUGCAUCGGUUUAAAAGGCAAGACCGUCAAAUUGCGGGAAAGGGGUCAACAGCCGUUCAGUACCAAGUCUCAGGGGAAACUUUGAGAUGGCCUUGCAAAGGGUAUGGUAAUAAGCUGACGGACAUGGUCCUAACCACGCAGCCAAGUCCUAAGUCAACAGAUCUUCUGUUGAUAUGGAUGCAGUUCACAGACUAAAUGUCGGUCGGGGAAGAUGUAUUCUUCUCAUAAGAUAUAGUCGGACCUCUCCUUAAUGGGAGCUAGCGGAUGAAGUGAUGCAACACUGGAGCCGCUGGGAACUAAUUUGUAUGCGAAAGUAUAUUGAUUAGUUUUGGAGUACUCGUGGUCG
Details: 30 °C
measurementLabel: self-splicing fitness (ln)
Numbers only.

Please state, for each entry, its recorded self-splicing fitness (ln).
1. AAAAAGCAAUAUUACGCUAU
2. GAUUAGCAAUAUUACGACAC
3. AUGCAGCAAUAUUACGGCCG
4. CUGCAGCAAUAUUACGCGAC
5. AAUUAGCAAUAUUACGUCAU
6. GUAAAGCAAUAUUACGUUGC
7. GAUCAGCAAUAUUACGAUAG
8. GUUCAGCAAUAUUACGUAAG

Response:
-2.04
-0.38
-1.62
-2.19
-2.24
-2.38
-0.506
-0.609

FYI, the data here is from the supplement of paper PMC7877785.
